Provenance of the data: PubChem BioAssay (EPA / NIEHS)

- Read-out: Intercellular Adhesion Molecule 1 (ICAM1), ICAM1 (gene 3383)
- run.description: BSK_3C_ICAM1: BioMAP Diversity Plus: 3C Assay for Intercellular Adhesion Molecule 1 (ICAM1) Biomarker Activity (AID 2283003)
- run.parameters: primary human endothelial cells (HUVEC); actives raise or lower the signal
The source made the active and inactive calls. Rule for the calls: active = hit-call score of the fitted dose curve at least 0.9, where 1 is the maximum; inactive = score below 0.9.
Labels: True = active, False = inactive

| compound | cat |
| --- | --- |
| CC(C)=CCC/C(C)=C\CO | False |
| COC(=O)c1c(Cl)c(Cl)c(C(=O)OC)c(Cl)c1Cl | False |
| Cc1c(-c2cccnc2)c2ccccc2n1CCCCC(=O)O | False |
| CCOCCOCCOCCO | False |
| CC(C)CCCCCCOC(=O)c1ccc(C(=O)OCCCCCCC(C)C)c(C(=O)OCCCCCCC(C)C)c1 | False |
| Cc1ccc(S(=O)(=O)O)cc1C | False |
| CC(=O)c1ccc2c(c1)[C@H](NC(=O)c1ccc(F)cc1)[C@@H](O)C(C)(C)O2 | False |
| C1N2CN3CN1CN(C2)C3 | False |
| CC(C)CCO | False |
| CCOC(=O)COc1ccc2c(c1)CC(NCC(O)c1cccc(Cl)c1)CC2 (centres undefined) | True |
| Cn1cnc([N+](=O)[O-])c1Sc1ncnc2nc[nH]c12 | False |
| CC1(C)C(=O)N(Br)C(=O)N1Br | False |
| CCNc1ccccc1 | False |
| C1=CCCC=CCCC=CCC1 | False |
| Cc1ccc(C)c(O)c1 | False |
| COc1cccc(-c2ccc(/C=C\CN3CCCCCC3)cc2Cl)c1 | True |
| COc1ccc(-n2nc(C(F)F)cc2-c2ccc(S(C)=O)cc2)cc1 (centres undefined) | False |
| CCc1cc(SCc2sc(-c3ccc(C(F)(F)F)cc3)nc2CN2CCN(c3ccc(OC)cc3)CC2)ccc1OCC(=O)O | True |
| O=C(O)c1cc(N=Nc2ccc(S(=O)(=O)Nc3ccccn3)cc2)ccc1O | False |
| CC(C)=CCCC(C)CCO (centres undefined) | False |
| CC[C@H]1CC[C@H](NCc2cc3c(cc2OC)[C@H]2C[C@H]2C(=O)N3C)[C@H](c2ccccc2)N1 | False |
| CCOc1cccc(-n2cc(C(=O)N3CCN(c4cc(C(=O)O)c5ccccc5c4)CC3)nc2-c2ccc(C)cc2)c1 | True |
| COC(=O)CC(=O)OC | False |
| Cn1c(=O)cc(Oc2ccc(F)cc2F)c2cnc(NCC(C)(C)O)nc21 | False |
| CCCCC(CC)COC(=O)c1ccc(C(=O)OCC(CC)CCCC)cc1 (centres undefined) | False |
| Oc1ccc2c(c1)-c1ccccc1C2 | False |
| COC(=O)c1ccccc1O | False |
| Nc1nc2ncc(CNc3ccc(C(=O)N[C@@H](CCC(=O)O)C(=O)O)cc3)nc2c(=O)[nH]1 | False |
| CC(O)CN(CCN(CC(C)O)CC(C)O)CC(C)O (centres undefined) | False |
| CCN(C(=O)c1cc(C)cc(OC[C@H](C)Nc2ccncc2)c1)C(C)C | False |
| CCCCCCCCCCCCCCCO | False |
| CNCc1ccc(NC(=O)c2c[nH]c3c2C(=O)CCC3)cc1 | False |
| C=CCCCCCCCCC(=O)O | False |
| On1ccccc1=S | True |
| CC(C)CCCCCCCOC(=O)CCCCC(=O)OCCCCCCCC(C)C | False |
| Cc1[nH]cnc1C[C@H]1CCc2c(C)c3ccccc3n2C1=O | False |
| Cc1ccc(O)cc1 | False |
| CC(=O)OC[C@H]1O[C@@](COC(C)=O)(O[C@H]2O[C@H](COC(C)=O)[C@@H](OC(C)=O)[C@H](OC(C)=O)[C@H]2OC(C)=O)[C@@H](OC(C)=O)[C@@H]1OC(C)=O | False |
| CC/C(=C\C(=N/O)C(N)=O)C(C)[N+](=O)[O-] (centres undefined) | False |
